Experiment: Equilibrium solubility, gravimetric, from slurry supernatants
Type: physicochemical
Conditions: MeOH slurry supernatant, organic solvent or mixture, thermodynamic from solid, MeOH; RT, with solvent replacement; solid Form B
value_kind: solubility (mg/mL)
Only the number, expressed in mg/mL, is required.

Problem: Answer with the recorded solubility of Cc1ccc(S(=O)(=O)OCCOCCOCCOc2ccc(/C=C/c3ccc(N(C)C(=O)OC(C)(C)C)cc3)cn2)cc1 [AV-105] only.
Solution: 13

---

Assay: Equilibrium solubility, gravimetric, from slurry supernatants
Assay type: physicochemical
Conditions: MIBK slurry supernatant, organic solvent or mixture, thermodynamic from solid, MIBK; RT; solid Form B
value_kind: solubility

Problem: Give reported solubility value for Cc1ccc(S(=O)(=O)OCCOCCOCCOc2ccc(/C=C/c3ccc(N(C)C(=O)OC(C)(C)C)cc3)cn2)cc1
Solution: 137 mg/mL

---

Test: Equilibrium solubility, gravimetric, from slurry supernatants
Type: physicochemical
Conditions: IPA slurry supernatant, 45 °C, organic solvent or mixture, thermodynamic from solid, IPA; solid Form B
Method: Measured aliquots of supernatants isolated from the solids were placed in pre-weighed TGA pans for evaporation. Unless otherwise specified, solids of AV-105 were composed of Form A and were agitated in specified solvents at specified temperatures. […] After ˜2 weeks, solids were separated from supernatants via centrifugation with filtration and analyzed by XRPD. Solubilities were evaluated as a single, small scale measurement via gravimetric method using supernatants separated from the solids. […]
value_kind: solubility (mg/mL)
Give the number; mg/mL is assumed, so skip it.

Problem: Give the reported solubility for this molecule. Cc1ccc(S(=O)(=O)OCCOCCOCCOc2ccc(/C=C/c3ccc(N(C)C(=O)OC(C)(C)C)cc3)cn2)cc1
Solution: 44

---

Assay: Equilibrium solubility, gravimetric, from slurry supernatants
Assay type: physicochemical
Conditions: IPA slurry supernatant, organic solvent or mixture, thermodynamic from solid, IPA; RT, with solvent replacement; solid Form B
value_kind: solubility

Problem: Give the reported value of solubility for this record: Cc1ccc(S(=O)(=O)OCCOCCOCCOc2ccc(/C=C/c3ccc(N(C)C(=O)OC(C)(C)C)cc3)cn2)cc1 [AV-105]
Solution: 4000 µg/mL

---

Test: Equilibrium solubility, gravimetric, from slurry supernatants
Type: physicochemical
Conditions: EtOAc/heptane 40/60 slurry supernatant, 2 °C, organic solvent or mixture, thermodynamic from solid, EtOAc/heptane 40/60; 2-8° C.; solid Form B
value_kind: solubility (µg/mL)
Write the number in µg/mL without appending the unit.

Problem: Quickly give me recorded solubility for Cc1ccc(S(=O)(=O)OCCOCCOCCOc2ccc(/C=C/c3ccc(N(C)C(=O)OC(C)(C)C)cc3)cn2)cc1
Solution: 6000

---

Assay: Equilibrium solubility, gravimetric, from slurry supernatants
Format: physicochemical
Conditions: CPME slurry supernatant, 2 °C, organic solvent or mixture, thermodynamic from solid, CPME; 2-8° C.; solid Form B
value_kind: solubility

Problem: Answer with the recorded solubility of Cc1ccc(S(=O)(=O)OCCOCCOCCOc2ccc(/C=C/c3ccc(N(C)C(=O)OC(C)(C)C)cc3)cn2)cc1 [AV-105] only.
Solution: 25 mg/mL

---

Experiment: Equilibrium solubility, gravimetric, from slurry supernatants
Assay type: physicochemical
Settings: ACN/water 50/50 slurry supernatant, aqueous with cosolvent or surfactant or cyclodextrin, thermodynamic from solid, ACN/water 50/50, Aw 0.90; RT; solid Form B
value_kind: solubility
Quick note: number first, unit second.

Problem: Given Cc1ccc(S(=O)(=O)OCCOCCOCCOc2ccc(/C=C/c3ccc(N(C)C(=O)OC(C)(C)C)cc3)cn2)cc1 , respond with its solubility.
Solution: 2000 µg/mL

---

Experiment: Equilibrium solubility, gravimetric, from slurry supernatants
Format: physicochemical
Conditions: EtOAc/heptane 40/60 slurry supernatant, organic solvent or mixture, thermodynamic from solid, EtOAc/heptane 40/60; RT; solid Form B
Procedure: Measured aliquots of supernatants isolated from the solids were placed in pre-weighed TGA pans for evaporation. Unless otherwise specified, solids of AV-105 were composed of Form A and were agitated in specified solvents at specified temperatures. […] After ˜2 weeks, solids were separated from supernatants via centrifugation with filtration and analyzed by XRPD. Solubilities were evaluated as a single, small scale measurement via gravimetric method using supernatants separated from the solids. […]
value_kind: solubility (mg/mL)
Response body: numeric value in mg/mL, unit text excluded.

Problem: Answer with the recorded solubility of Cc1ccc(S(=O)(=O)OCCOCCOCCOc2ccc(/C=C/c3ccc(N(C)C(=O)OC(C)(C)C)cc3)cn2)cc1 only.
Solution: 27

---

Experiment: Equilibrium solubility, gravimetric, from slurry supernatants
Format: physicochemical
Details: CPME slurry supernatant, organic solvent or mixture, thermodynamic from solid, CPME; RT; solid Form B
value_kind: solubility
Form field: result (number plus unit)

Problem: Look up and state reported solubility for Cc1ccc(S(=O)(=O)OCCOCCOCCOc2ccc(/C=C/c3ccc(N(C)C(=O)OC(C)(C)C)cc3)cn2)cc1
Solution: 47 mg/mL

---

Assay: Equilibrium solubility, gravimetric, from slurry supernatants
Type: physicochemical
Conditions: EtOH slurry supernatant, organic solvent or mixture, thermodynamic from solid, EtOH; RT, with solvent replacement; solid Form B
value_kind: solubility (µg/mL)
Write down the numeric answer in µg/mL and omit the unit.

Problem: Dear colleague, please send me the reported solubility for Cc1ccc(S(=O)(=O)OCCOCCOCCOc2ccc(/C=C/c3ccc(N(C)C(=O)OC(C)(C)C)cc3)cn2)cc1 [AV-105] when you can.
Solution: 7000

---

Assay: Equilibrium solubility, gravimetric, from slurry supernatants
Format: physicochemical
Details: MTBE slurry supernatant, organic solvent or mixture, thermodynamic from solid, MTBE; RT; solid Form B
value_kind: solubility (mg/mL)
Write it as a number; the unit mg/mL goes unstated.

Problem: Identify the reported solubility for the following entry. Cc1ccc(S(=O)(=O)OCCOCCOCCOc2ccc(/C=C/c3ccc(N(C)C(=O)OC(C)(C)C)cc3)cn2)cc1
Solution: 34

---

Experiment: Equilibrium solubility, gravimetric, from slurry supernatants
Type: physicochemical
Conditions: EtOH slurry supernatant, organic solvent or mixture, thermodynamic from solid, EtOH; RT, with solvent replacement (a); starting material mixture of Form A/Form B; solid Form B
Method: Measured aliquots of supernatants isolated from the solids were placed in pre-weighed TGA pans for evaporation. Unless otherwise specified, solids of AV-105 were composed of Form A and were agitated in specified solvents at specified temperatures. […] After ˜2 weeks, solids were separated from supernatants via centrifugation with filtration and analyzed by XRPD. Solubilities were evaluated as a single, small scale measurement via gravimetric method using supernatants separated from the solids. […]
value_kind: solubility (µg/mL)
The reply should contain only the number, in µg/mL.

Problem: Name the recorded solubility of the item Cc1ccc(S(=O)(=O)OCCOCCOCCOc2ccc(/C=C/c3ccc(N(C)C(=O)OC(C)(C)C)cc3)cn2)cc1 [AV-105] in your answer.
Solution: 7000

---

Test: Equilibrium solubility, gravimetric, from slurry supernatants
Assay type: physicochemical
Details: IPrOAc slurry supernatant, organic solvent or mixture, thermodynamic from solid, IPrOAc; RT; solid Form B
value_kind: solubility
Lab note: write values as number then unit, every time.

Problem: Report solubility for Cc1ccc(S(=O)(=O)OCCOCCOCCOc2ccc(/C=C/c3ccc(N(C)C(=O)OC(C)(C)C)cc3)cn2)cc1
Solution: 93 mg/mL

---

Test: Equilibrium solubility, gravimetric, from slurry supernatants
Type: physicochemical
Settings: THF/cyclohexane 30/70 slurry supernatant, 2 °C, organic solvent or mixture, thermodynamic from solid, THF/cyclohexane 30/70; 2-8° C.; solid Form B
Protocol: Measured aliquots of supernatants isolated from the solids were placed in pre-weighed TGA pans for evaporation. Unless otherwise specified, solids of AV-105 were composed of Form A and were agitated in specified solvents at specified temperatures. […] After ˜2 weeks, solids were separated from supernatants via centrifugation with filtration and analyzed by XRPD. Solubilities were evaluated as a single, small scale measurement via gravimetric method using supernatants separated from the solids. […]
value_kind: solubility

Problem: Give a short answer stating reported solubility for Cc1ccc(S(=O)(=O)OCCOCCOCCOc2ccc(/C=C/c3ccc(N(C)C(=O)OC(C)(C)C)cc3)cn2)cc1 [AV-105] .
Solution: 55 mg/mL

---

Test: Equilibrium solubility, gravimetric, from slurry supernatants
Assay type: physicochemical
Conditions: MIBK slurry supernatant, 35 °C, organic solvent or mixture, thermodynamic from solid, MIBK; solid Form B
Description: Measured aliquots of supernatants isolated from the solids were placed in pre-weighed TGA pans for evaporation. Unless otherwise specified, solids of AV-105 were composed of Form A and were agitated in specified solvents at specified temperatures. […] After ˜2 weeks, solids were separated from supernatants via centrifugation with filtration and analyzed by XRPD. Solubilities were evaluated as a single, small scale measurement via gravimetric method using supernatants separated from the solids. […]
value_kind: solubility (mg/mL)
Record the value in mg/mL, omitting the unit from your answer.

Problem: Please list solubility recorded for the molecule Cc1ccc(S(=O)(=O)OCCOCCOCCOc2ccc(/C=C/c3ccc(N(C)C(=O)OC(C)(C)C)cc3)cn2)cc1
Solution: 277
